target or system: EGFR on the surface of human tumour cells (A431, H292) (human, UniProt P00533 25-1210)
procedure text: cell-based or functional assay
Classify: class 1 when IC50, EGF-stimulated EGFR phosphorylation, H292 cells, ELISA is strictly less than 10 nM; class 0 when IC50, EGF-stimulated EGFR phosphorylation, H292 cells, ELISA is not.

Solved cases (3 shown):
>  <binder>
I1-GS10-E85 pegylated, His-tagged (designed binder, 40 kDa branched PEG on the Cys of the C-terminal Cys tail) MGVSDVPRDLEVVAATPTSLLISWSARLKVARYYRITYGETGGNSPVQEFTVPKNVYTATISGLKPGVDYTITVYAVTRFRDYQPISINYRTEIDKGSGSGSGSGSGSGSGSGSGSVSDVPRDLEVVAATPTSLLISWTQGSTHYQYYRITYGETGGNSPVQEFTVPGMVYTATISGLKPGVDYTITVYAVTDYFDRSTHEYKYRTTPISINYRTEIDKPCQHHHHHH

>  <discrete label>
class 1

$$$$
>  <binder>
E105-GS10-I1 pegylated (designed binder, Cys of the C-terminal Cys tail conjugated to 40 kDa branched PEG) E/I tandem 10Fn3 chain: MGVSDVPRDLEVVAATPTSLLISWDAPTSRYQYYRITYGETGGNSPVQEFTVPGGLSTATISGLKPGVDYTITVYAVTDYKPHADGPHTYHESPISINYRTEIDKGSGSGSGSGSGSGSGSGSGSVSDVPRDLEVVAATPTSLLISWSARLKVARYYRITYGETGGNSPVQEFTVPKNVYTATISGLKPGVDYTITVYAVTRFRDYQPISINYRTEIDKPCQHHHHHH

>  <discrete label>
class 0

$$$$
>  <binder>
E85-GS10-I1 pegylated (designed binder, Cys of the C-terminal Cys tail conjugated to 40 kDa branched PEG) E/I tandem 10Fn3 chain: MGVSDVPRDLEVVAATPTSLLISWTQGSTHYQYYRITYGETGGNSPVQEFTVPGMVYTATISGLKPGVDYTITVYAVTDYFDRSTHEYKYRTTPISINYRTEIDKGSGSGSGSGSGSGSGSGSGSVSDVPRDLEVVAATPTSLLISWSARLKVARYYRITYGETGGNSPVQEFTVPKNVYTATISGLKPGVDYTITVYAVTRFRDYQPISINYRTEIDKPCQHHHHHH

>  <discrete label>
class 1

$$$$

Is it true that IC50, EGF-stimulated EGFR phosphorylation, H292 cells, ELISA reported for E4-GS10-I1 pegylated, His-tagged (designed binder, 40 kDa branched PEG on the Cys of the C-terminal Cys tail, also called E4-GS10-I1 (with Peg)) MGVSDVPRDLEVVAATPTSLLISWHERDGSRQYYRITYGETGGNSPVQEFTVPGGVRTATISGLKPGVDYTITVYAVTDYFNPTTHEYIYQTTPISINYRTEIDKGSGSGSGSGSGSGSGSGSGSVSDVPRDLEVVAATPTSLLISWSARLKVARYYRITYGETGGNSPVQEFTVPKNVYTATISGLKPGVDYTITVYAVTRFRDYQPISINYRTEIDKPCQHHHHHH is less than 10 nM? class 1
